TESTED TARGET: Tau-RD3 (Tau repeat domain 3) (Homo sapiens)
Sequence (P10636 623-653 limits assumed): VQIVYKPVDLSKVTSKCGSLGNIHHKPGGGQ
TEST DETAILS: Tau disaggregation test by Thioflavin-T analysis
Assay type: biochemical
ASSAY SETUP: Tau-RD3 35 µM aggregated 24 hours, then compound 0 - 500 µM for 48 hours at 37 °C; concentration disaggregating 50 % of aggregates vs control; read-out: EC50 (µM) Tau
Overview of recorded EC50 for various compounds

Worked examples follow.
[
  {
    "MOLECULE": "Cc1ncsc1C1=C(c2cccnc2)C(=O)c2cc(NC3CCN(C)CC3)ccc21",
    "EC50": "20 to 100 µM"
  },
  {
    "MOLECULE": "Cc1ncsc1C1=C(c2ccc(CN3CCN(C)CC3)cc2)c2ccccc2C1=O",
    "EC50": "20 to 100 µM"
  },
  {
    "MOLECULE": "Cc1ncsc1C1=C(c2cccnc2)C(=O)c2ccccc21",
    "EC50": "100 to 250 µM"
  },
  {
    "MOLECULE": "O=C1C(c2ccccc2)=C(c2ccc(N3CCOCC3)cc2)c2ccccc21",
    "EC50": "> 250 µM"
  }
]

Asked: Please give the measured EC50 for this compound: O=C1C(c2ccccc2)=C(c2ccccc2)c2ccc(N3CCOCC3)cc21
Given back: > 250 µM

Asked: Please give the measured EC50 for this compound: CN(C)c1ccc2c(c1)C(=O)C(c1ccccc1)=C2c1ccccc1
Given back: > 250 µM

Asked: Please give the measured EC50 for this compound: O=C1C(c2ccccc2)=C(c2ccccc2)c2ccccc21
Given back: > 250 µM

Asked: Please give the measured EC50 for this compound: Cc1ncsc1C1=C(c2cn(C)nn2)C(=O)c2cc(OCCCc3ccccc3)ccc21
Given back: < 20 µM

Asked: Please give the measured EC50 for this compound: Cc1ncsc1C1=C(c2cccnc2)C(=O)c2cc(NC3CCCC3)ccc21
Given back: > 250 µM

Asked: Please give the measured EC50 for this compound: Cc1ncsc1C1=C(c2cccc(CN3CCN(C)CC3)c2)C(=O)c2ccccc21
Given back: 20 to 100 µM

* * *

Overview of recorded EC50 for various molecules
TESTED TARGET: Aβ1-42 (Homo sapiens, UniProt P05067)
Construct: dissolving Aβ1-42 or Tau-RD3 (Tau repeat domain 3) monomers in DMSO
Sequence (P05067 672-713 limits assumed): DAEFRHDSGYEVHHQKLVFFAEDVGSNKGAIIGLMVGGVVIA
TEST DETAILS: Amyloid-beta disaggregation test by Thioflavin-T analysis
Format: biochemical
ASSAY SETUP: Aβ1-42 50 µM aggregated 24 hours, then compound 0 - 500 µM for 48 hours at 37 °C; concentration disaggregating 50 % of aggregates vs control; read-out: EC50 (µM) Aβ

Worked examples follow.
[
  {
    "MOLECULE": "Cc1ncsc1C1=C(c2cccc(CN3CCOCC3)c2)C(=O)c2ccccc21 [Compound 89]",
    "TEST VALUE": "20 to 100 µM"
  },
  {
    "MOLECULE": "CCOC(=O)c1ccccc1C1=C(c2ccccc2C)c2ccccc2C1=O [Compound 99-7]",
    "TEST VALUE": "100 to 250 µM"
  },
  {
    "MOLECULE": "CN1CCN(c2ccc(C3=C(c4ccccc4)C(=O)c4ccccc43)cc2)CC1 [Compound 94]",
    "TEST VALUE": "< 20 µM"
  },
  {
    "MOLECULE": "Cc1ncsc1C1=C(c2cccnc2)C(=O)c2cc(N3CCN(C)CC3)ccc21 [Compound 64]",
    "TEST VALUE": "20 to 100 µM"
  },
  {
    "MOLECULE": "Cc1ncsc1C1=C(c2cccnc2)C(=O)c2ccccc21 [Compound 19]",
    "TEST VALUE": "> 250 µM"
  },
  {
    "MOLECULE": "CNc1ccc2c(c1)C(=O)C(c1ccccc1)=C2c1ccccc1 [Compound 67]",
    "TEST VALUE": "> 250 µM"
  }
]

Asked: Please give the measured EC50 for this molecule: Cc1ncsc1C1=C(c2cccnc2)C(=O)c2cc(N(C)C)ccc21 [Compound 62]
Given back: > 250 µM

Asked: Please give the measured EC50 for this molecule: Cc1cccc(C)c1C1=C(c2ccccc2)C(=O)c2cc(Cl)ccc21 [Compound 72-7]
Given back: < 20 µM

Asked: Please give the measured EC50 for this molecule: Cc1ccncc1C1=C(c2scnc2C)c2ccc(OCCCc3ccccc3)cc2C1=O [Compound 21]
Given back: < 20 µM

* * *

Overview of recorded EC50 for various compounds
TESTED TARGET: Aβ1-42 (Homo sapiens)
Construct: dissolving Aβ1-42 or Tau-RD3 (Tau repeat domain 3) monomers in DMSO
TEST DETAILS: Amyloid-beta disaggregation test by Thioflavin-T analysis
Type: biochemical
ASSAY SETUP: Aβ1-42 50 µM aggregated 24 hours, then compound 0 - 500 µM for 48 hours at 37 °C; concentration disaggregating 50 % of aggregates vs control; read-out: EC50 (µM) Aβ

[
  {
    "COMPOUND": "Cc1ncsc1C1=C(c2ccn(C)n2)C(=O)c2cc(OCCCc3ccccc3)ccc21 [Compound 26]",
    "TEST VALUE": "< 20 µM"
  },
  {
    "COMPOUND": "COc1cccc(OC)c1C1=C(c2cccnc2)C(=O)c2cc(OCCCc3ccccc3)ccc21 [Compound 45]",
    "TEST VALUE": "< 20 µM"
  },
  {
    "COMPOUND": "Cc1ncsc1C1=C(c2cnn(C)n2)C(=O)c2cc(OCCCc3ccccc3)ccc21 [Compound 33]",
    "TEST VALUE": "< 20 µM"
  },
  {
    "COMPOUND": "CNc1ccc2c(c1)C(=O)C(c1cccnc1)=C2c1scnc1C [Compound 50]",
    "TEST VALUE": "> 250 µM"
  },
  {
    "COMPOUND": "O=C1C(c2ccccc2)=C(Br)c2ccccc21 [Compound 5-4, 3-bromo-2-phenyl-1H-inden-1-one]",
    "TEST VALUE": "< 20 µM"
  },
  {
    "COMPOUND": "Cc1scnc1C1=C(c2cccnc2)C(=O)c2cc(OCCCc3ccncc3)ccc21 [Compound 23]",
    "TEST VALUE": "< 20 µM"
  }
]

Asked: Please give the measured EC50 for this compound: O=C1C(c2ccccc2)=C(C2CCCCC2)c2ccccc21 [Compound 10, 3-cyclohexyl-2-phenyl-1H-inden-1-one]
Given back: > 250 µM

Asked: Please give the measured EC50 for this compound: Cc1ncsc1C1=C(c2cccnc2)C(=O)c2cc(NC3CCCC3)ccc21 [Compound 49]
Given back: < 20 µM

Asked: Please give the measured EC50 for this compound: O=C1C(c2cccnc2)=C(c2cn[nH]c2)c2ccc(OCCCc3ccccc3)cc21 [Compound 43]
Given back: > 250 µM

Asked: Please give the measured EC50 for this compound: Cc1ncsc1C1=C(c2cccnc2)C(=O)c2cc(NCCCc3ccccc3)ccc21 [Compound 20]
Given back: < 20 µM

Asked: Please give the measured EC50 for this compound: O=C1C(C2CCCCC2)=C(c2ccccc2)c2ccccc21 [Compound 11, 2-cyclohexyl-3-phenyl-1H-inden-1-one]
Given back: 100 to 250 µM

Asked: Please give the measured EC50 for this compound: Cc1ncsc1C1=C(c2cccnc2)C(=O)c2cc(NC3CCOCC3)ccc21 [Compound 56]
Given back: 20 to 100 µM

Asked: Please give the measured EC50 for this compound: O=C1C(c2ccccc2)=C(c2cccc(N3CCOCC3)c2)c2ccccc21 [Compound 15]
Given back: 20 to 100 µM

* * *

TESTED TARGET: Aβ1-42 (Homo sapiens)
Construct: dissolving Aβ1-42 or Tau-RD3 (Tau repeat domain 3) monomers in DMSO
TEST DETAILS: Amyloid-beta disaggregation test by Thioflavin-T analysis
Format: biochemical
ASSAY SETUP: Aβ1-42 50 µM aggregated 24 hours, then compound 0 - 500 µM for 48 hours at 37 °C; concentration disaggregating 50 % of aggregates vs control; read-out: EC50 (µM) Aβ
Description: Each compound was dissolved in DMSO to a concentration of 10 mM. Then, the compounds were diluted with 6 % DMSO (in DW) for use. […] 25 µL of each completed reaction solution was added to each well of a 96-well fluorescence analysis plate, and 75 µL of the Thioflavin-T solution was added to each well. After reacting for 5 minutes at room temperature in the dark, the fluorescence value was measured at 450 nm (excitation) and 485 nm (emission) using a multi-mode microplate reader. […]
READOUT KIND: EC50

[
  {
    "COMPOUND": "Cc1ncsc1C1=C(c2ccc(N3CCN(C)CC3)cc2)C(=O)c2cc(Cl)ccc21 [Compound 74-7]",
    "EC50": "< 20 µM"
  }
]

Asked: Please give the measured EC50 for this compound: CN1CCN(c2ccc3c(c2)C(=O)C(c2cccc(N4CCOCC4)c2)=C3c2ccccc2)CC1 [Compound 73]
Given back: 100 to 250 µM

Asked: Please give the measured EC50 for this compound: Cc1ncsc1C1=C(c2cccnc2)C(=O)c2cc(OCCCc3ccccc3)cc(O)c21 [Compound 48]
Given back: < 20 µM

Asked: Please give the measured EC50 for this compound: Cc1ncsc1C1=C(c2ccncc2)C(=O)c2cc(O)ccc21 [Compound 39-3]
Given back: > 250 µM

Hello, the source for this data is patent EP4745117A1, in case you need it.
